Kd values by entry
B1: m42.127 Fab / Biotinylated junctional peptide Pep21 (PfCSP peptide 21) [modified: biotin (position not stated); biotin (position not stated)] [Plasmodium falciparum (clone 3D7)] (parent complex)
chain 1: QVQLVQSGAEVKKPGASVKVSCKASGYTFTSYAIHWVRQAPGQRLEWMGWIKAGNGNTRYSQKFQDRVTITRDTSASTAYMELSSLRSEDTAVYYCALLTVITPDDTFDIWGQGTMVTVSSASTKGPSVFPLAPSSKSTSGGTAALGCLVKDYFPEPVTVSWNSGALTSGVHTFPAVLQSSGLYSLSSVVTVPSSSLGTQTYICNVNHKPSNTKVDKKVEPKSCDKGLEVLFQ
chain 2: not shown
chain 3: NPDPNANPNVDPNAN

Variants of: B1
Assay: BLI; read off a plot

# example entries with known answers
- Mutation annotation: "chain 1 T103K"
  Kd: "~15 nM"
- Mutation annotation: "chain 1 Y32K"
  Kd: "~18 nM"

Consider chain 1 T103R, chain 1 P104R . Its measured Kd is ~15 nM

Sourced from paper PMC12269619
